# Experimental System: T1, Recombinant Human FGFR2 alpha (IIIc) Fc Chimera Protein, CF (R&D systems, 712-FR-050) (human, UniProt P21802 22-377)
# T1 construct: bought; not shown: Fc part of the chimera
# T1 sequence (P21802 22-377, change not shown): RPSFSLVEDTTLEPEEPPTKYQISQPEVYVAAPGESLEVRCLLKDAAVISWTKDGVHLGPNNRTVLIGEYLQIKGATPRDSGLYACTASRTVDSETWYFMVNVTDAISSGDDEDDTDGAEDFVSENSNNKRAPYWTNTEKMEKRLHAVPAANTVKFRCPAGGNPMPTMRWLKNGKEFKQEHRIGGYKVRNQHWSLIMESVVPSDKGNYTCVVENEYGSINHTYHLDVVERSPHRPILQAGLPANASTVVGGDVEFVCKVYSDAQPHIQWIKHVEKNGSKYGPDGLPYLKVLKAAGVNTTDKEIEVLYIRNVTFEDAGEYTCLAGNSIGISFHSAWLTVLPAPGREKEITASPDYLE
# Experiment Summary: ELISA on plate-bound FGFR2-Fc
Bridge positions count the residues as written; N and C are the ends. Ends that are not written are not given here. COCH2 = acetyl group that carries the bridge
Measurement Kind: ELISA luminescence signal at 10 nmol/L peptide, relative to SEQ ID NO: 47 (=1)

Below, each entry is followed by its recorded ELISA luminescence signal at 10 nmol/L peptide, relative to SEQ ID NO: 47 (=1) result.
Asked: I have this binder here, RCEENYLDPEQYQYFIYFK(COCH2)Y (thioether 2-19) [cyclic peptide SEQ ID NO: 149] , and I need its recorded ELISA luminescence signal at 10 nmol/L peptide, relative to SEQ ID NO: 47 (=1).
Given back: ≥ 0.7 ratio

Asked: I have this binder here, VCHSNFLSAVQYAYFYQYK(COCH2)H (thioether 2-19 (inferred)) [cyclic peptide SEQ ID NO: 51] , and I need its recorded ELISA luminescence signal at 10 nmol/L peptide, relative to SEQ ID NO: 47 (=1).
Given back: ≥ 0.7 ratio

Others:
Asked: I have this binder here, QCEQLKYLYQYVLKL (not fully specified; thioether ring (C)-(K(acetyl))) [cyclic peptide SEQ ID NO: 372] , and I need its recorded ELISA luminescence signal at 10 nmol/L peptide, relative to SEQ ID NO: 47 (=1).
Given back: 0.1 to 0.5 ratio

Asked: I have this binder here, DCQQYYLYLYLWK(COCH2)I (thioether 2-13) [cyclic peptide SEQ ID NO: 366] , and I need its recorded ELISA luminescence signal at 10 nmol/L peptide, relative to SEQ ID NO: 47 (=1).
Given back: 0.1 to 0.5 ratio

Asked: I have this binder here, YCNENYLDPEQYQYFIYFK(COCH2)Y (thioether 2-19) [cyclic peptide SEQ ID NO: 159] , and I need its recorded ELISA luminescence signal at 10 nmol/L peptide, relative to SEQ ID NO: 47 (=1).
Given back: ≥ 0.7 ratio

Asked: I have this binder here, LCTQFPASQRYYFALYRLWHK(COCH2)S (thioether 2-21 (inferred)) [cyclic peptide SEQ ID NO: 416] , and I need its recorded ELISA luminescence signal at 10 nmol/L peptide, relative to SEQ ID NO: 47 (=1).
Given back: 0.1 to 0.5 ratio
